molecular target: PLA2-treated LDL (Homo sapiens, UniProt P04114); construct: from tissue; host or cells: pooled normolipemic human plasma; assay: Anti-LDL aggregation assay, turbidimetry, aggregation induced by phospholipase A2 (PLA2); type: biochemical; conditions: 18 h, read-out: Inhibition of LDL aggregation, PLA2-treated LDL
Where a SMILES comes first, the peptide text is derived from it. [ ]: non-standard residue; d: D form.
readoutLabel: inhibition at 10 µM
Please don't drop the unit; write it after the number.

Lookup: Check the records and state inhibition at 10 µM for CC(=O)N[C@H](CC(=O)O)C(=O)N[C@H](CO)C(=O)N[C@H](CCC(=O)O)C(=O)N[C@H](CC(=O)O)C(=O)N[C@H](CC(N)=O)C(=O)N[C@H](CCCCN)C(=O)N[C@H](CC(=O)O)C(=O)N[C@H](CCC(=O)O)C(=O)N[C@H](CCC(=O)O)C(=O)N[C@H](C)C(N)=O [Example 19] (Ac-[dD][dS][dE][dD][dN][dK][dD][dE][dE][dA]-NH2)
Found: 46.2%

Lookup: Check the records and state inhibition at 10 µM for CC(=O)N[C@H](CO)C(=O)N[C@H](CCC(=O)O)C(=O)N[C@H](CC(=O)O)C(=O)N[C@H](CC(N)=O)C(=O)N[C@H](CCCNC(=N)N)C(=O)N[C@H](CC(=O)O)C(=O)N[C@H](CCC(=O)O)C(=O)N[C@H](CCC(=O)O)C(=O)N[C@H](CC(C)C)C(N)=O [Example 7] (Ac-[dS][dE][dD][dN][dR][dD][dE][dE][dL]-NH2)
Found: -1.9%

Lookup: Check the records and state inhibition at 10 µM for CC(=O)N[C@H](CC(=O)O)C(=O)N[C@H](CO)C(=O)N[C@H](CCC(=O)O)C(=O)N[C@H](CC(=O)O)C(=O)N[C@H](CC(N)=O)C(=O)N[C@H](CO)C(=O)N[C@H](CC(=O)O)C(=O)N[C@H](CCC(=O)O)C(=O)N[C@H](CCC(=O)O)C(=O)N[C@H](CC(N)=O)C(N)=O [Example 12] (Ac-[dD][dS][dE][dD][dN][dS][dD][dE][dE][dN]-NH2)
Found: 94.3%

----------
Catalogue of compounds with associated inhibition at 10 µM
target: SMase-treated LDL (Homo sapiens); construct: from tissue; host or cells: pooled normolipemic human plasma; assay: Anti-LDL aggregation assay, turbidimetry, aggregation induced by sphingomyelinase (SMase); type: biochemical; settings: peptide 10 μM (compound/ApoB-100 4.7/1), human LDL 1.44 mg/mL, 40 U/L Bacillus cereus SMase, 18 hours, 37° C., absorbance at 405 nm, Equation I
Sequence (P04114 28-4563): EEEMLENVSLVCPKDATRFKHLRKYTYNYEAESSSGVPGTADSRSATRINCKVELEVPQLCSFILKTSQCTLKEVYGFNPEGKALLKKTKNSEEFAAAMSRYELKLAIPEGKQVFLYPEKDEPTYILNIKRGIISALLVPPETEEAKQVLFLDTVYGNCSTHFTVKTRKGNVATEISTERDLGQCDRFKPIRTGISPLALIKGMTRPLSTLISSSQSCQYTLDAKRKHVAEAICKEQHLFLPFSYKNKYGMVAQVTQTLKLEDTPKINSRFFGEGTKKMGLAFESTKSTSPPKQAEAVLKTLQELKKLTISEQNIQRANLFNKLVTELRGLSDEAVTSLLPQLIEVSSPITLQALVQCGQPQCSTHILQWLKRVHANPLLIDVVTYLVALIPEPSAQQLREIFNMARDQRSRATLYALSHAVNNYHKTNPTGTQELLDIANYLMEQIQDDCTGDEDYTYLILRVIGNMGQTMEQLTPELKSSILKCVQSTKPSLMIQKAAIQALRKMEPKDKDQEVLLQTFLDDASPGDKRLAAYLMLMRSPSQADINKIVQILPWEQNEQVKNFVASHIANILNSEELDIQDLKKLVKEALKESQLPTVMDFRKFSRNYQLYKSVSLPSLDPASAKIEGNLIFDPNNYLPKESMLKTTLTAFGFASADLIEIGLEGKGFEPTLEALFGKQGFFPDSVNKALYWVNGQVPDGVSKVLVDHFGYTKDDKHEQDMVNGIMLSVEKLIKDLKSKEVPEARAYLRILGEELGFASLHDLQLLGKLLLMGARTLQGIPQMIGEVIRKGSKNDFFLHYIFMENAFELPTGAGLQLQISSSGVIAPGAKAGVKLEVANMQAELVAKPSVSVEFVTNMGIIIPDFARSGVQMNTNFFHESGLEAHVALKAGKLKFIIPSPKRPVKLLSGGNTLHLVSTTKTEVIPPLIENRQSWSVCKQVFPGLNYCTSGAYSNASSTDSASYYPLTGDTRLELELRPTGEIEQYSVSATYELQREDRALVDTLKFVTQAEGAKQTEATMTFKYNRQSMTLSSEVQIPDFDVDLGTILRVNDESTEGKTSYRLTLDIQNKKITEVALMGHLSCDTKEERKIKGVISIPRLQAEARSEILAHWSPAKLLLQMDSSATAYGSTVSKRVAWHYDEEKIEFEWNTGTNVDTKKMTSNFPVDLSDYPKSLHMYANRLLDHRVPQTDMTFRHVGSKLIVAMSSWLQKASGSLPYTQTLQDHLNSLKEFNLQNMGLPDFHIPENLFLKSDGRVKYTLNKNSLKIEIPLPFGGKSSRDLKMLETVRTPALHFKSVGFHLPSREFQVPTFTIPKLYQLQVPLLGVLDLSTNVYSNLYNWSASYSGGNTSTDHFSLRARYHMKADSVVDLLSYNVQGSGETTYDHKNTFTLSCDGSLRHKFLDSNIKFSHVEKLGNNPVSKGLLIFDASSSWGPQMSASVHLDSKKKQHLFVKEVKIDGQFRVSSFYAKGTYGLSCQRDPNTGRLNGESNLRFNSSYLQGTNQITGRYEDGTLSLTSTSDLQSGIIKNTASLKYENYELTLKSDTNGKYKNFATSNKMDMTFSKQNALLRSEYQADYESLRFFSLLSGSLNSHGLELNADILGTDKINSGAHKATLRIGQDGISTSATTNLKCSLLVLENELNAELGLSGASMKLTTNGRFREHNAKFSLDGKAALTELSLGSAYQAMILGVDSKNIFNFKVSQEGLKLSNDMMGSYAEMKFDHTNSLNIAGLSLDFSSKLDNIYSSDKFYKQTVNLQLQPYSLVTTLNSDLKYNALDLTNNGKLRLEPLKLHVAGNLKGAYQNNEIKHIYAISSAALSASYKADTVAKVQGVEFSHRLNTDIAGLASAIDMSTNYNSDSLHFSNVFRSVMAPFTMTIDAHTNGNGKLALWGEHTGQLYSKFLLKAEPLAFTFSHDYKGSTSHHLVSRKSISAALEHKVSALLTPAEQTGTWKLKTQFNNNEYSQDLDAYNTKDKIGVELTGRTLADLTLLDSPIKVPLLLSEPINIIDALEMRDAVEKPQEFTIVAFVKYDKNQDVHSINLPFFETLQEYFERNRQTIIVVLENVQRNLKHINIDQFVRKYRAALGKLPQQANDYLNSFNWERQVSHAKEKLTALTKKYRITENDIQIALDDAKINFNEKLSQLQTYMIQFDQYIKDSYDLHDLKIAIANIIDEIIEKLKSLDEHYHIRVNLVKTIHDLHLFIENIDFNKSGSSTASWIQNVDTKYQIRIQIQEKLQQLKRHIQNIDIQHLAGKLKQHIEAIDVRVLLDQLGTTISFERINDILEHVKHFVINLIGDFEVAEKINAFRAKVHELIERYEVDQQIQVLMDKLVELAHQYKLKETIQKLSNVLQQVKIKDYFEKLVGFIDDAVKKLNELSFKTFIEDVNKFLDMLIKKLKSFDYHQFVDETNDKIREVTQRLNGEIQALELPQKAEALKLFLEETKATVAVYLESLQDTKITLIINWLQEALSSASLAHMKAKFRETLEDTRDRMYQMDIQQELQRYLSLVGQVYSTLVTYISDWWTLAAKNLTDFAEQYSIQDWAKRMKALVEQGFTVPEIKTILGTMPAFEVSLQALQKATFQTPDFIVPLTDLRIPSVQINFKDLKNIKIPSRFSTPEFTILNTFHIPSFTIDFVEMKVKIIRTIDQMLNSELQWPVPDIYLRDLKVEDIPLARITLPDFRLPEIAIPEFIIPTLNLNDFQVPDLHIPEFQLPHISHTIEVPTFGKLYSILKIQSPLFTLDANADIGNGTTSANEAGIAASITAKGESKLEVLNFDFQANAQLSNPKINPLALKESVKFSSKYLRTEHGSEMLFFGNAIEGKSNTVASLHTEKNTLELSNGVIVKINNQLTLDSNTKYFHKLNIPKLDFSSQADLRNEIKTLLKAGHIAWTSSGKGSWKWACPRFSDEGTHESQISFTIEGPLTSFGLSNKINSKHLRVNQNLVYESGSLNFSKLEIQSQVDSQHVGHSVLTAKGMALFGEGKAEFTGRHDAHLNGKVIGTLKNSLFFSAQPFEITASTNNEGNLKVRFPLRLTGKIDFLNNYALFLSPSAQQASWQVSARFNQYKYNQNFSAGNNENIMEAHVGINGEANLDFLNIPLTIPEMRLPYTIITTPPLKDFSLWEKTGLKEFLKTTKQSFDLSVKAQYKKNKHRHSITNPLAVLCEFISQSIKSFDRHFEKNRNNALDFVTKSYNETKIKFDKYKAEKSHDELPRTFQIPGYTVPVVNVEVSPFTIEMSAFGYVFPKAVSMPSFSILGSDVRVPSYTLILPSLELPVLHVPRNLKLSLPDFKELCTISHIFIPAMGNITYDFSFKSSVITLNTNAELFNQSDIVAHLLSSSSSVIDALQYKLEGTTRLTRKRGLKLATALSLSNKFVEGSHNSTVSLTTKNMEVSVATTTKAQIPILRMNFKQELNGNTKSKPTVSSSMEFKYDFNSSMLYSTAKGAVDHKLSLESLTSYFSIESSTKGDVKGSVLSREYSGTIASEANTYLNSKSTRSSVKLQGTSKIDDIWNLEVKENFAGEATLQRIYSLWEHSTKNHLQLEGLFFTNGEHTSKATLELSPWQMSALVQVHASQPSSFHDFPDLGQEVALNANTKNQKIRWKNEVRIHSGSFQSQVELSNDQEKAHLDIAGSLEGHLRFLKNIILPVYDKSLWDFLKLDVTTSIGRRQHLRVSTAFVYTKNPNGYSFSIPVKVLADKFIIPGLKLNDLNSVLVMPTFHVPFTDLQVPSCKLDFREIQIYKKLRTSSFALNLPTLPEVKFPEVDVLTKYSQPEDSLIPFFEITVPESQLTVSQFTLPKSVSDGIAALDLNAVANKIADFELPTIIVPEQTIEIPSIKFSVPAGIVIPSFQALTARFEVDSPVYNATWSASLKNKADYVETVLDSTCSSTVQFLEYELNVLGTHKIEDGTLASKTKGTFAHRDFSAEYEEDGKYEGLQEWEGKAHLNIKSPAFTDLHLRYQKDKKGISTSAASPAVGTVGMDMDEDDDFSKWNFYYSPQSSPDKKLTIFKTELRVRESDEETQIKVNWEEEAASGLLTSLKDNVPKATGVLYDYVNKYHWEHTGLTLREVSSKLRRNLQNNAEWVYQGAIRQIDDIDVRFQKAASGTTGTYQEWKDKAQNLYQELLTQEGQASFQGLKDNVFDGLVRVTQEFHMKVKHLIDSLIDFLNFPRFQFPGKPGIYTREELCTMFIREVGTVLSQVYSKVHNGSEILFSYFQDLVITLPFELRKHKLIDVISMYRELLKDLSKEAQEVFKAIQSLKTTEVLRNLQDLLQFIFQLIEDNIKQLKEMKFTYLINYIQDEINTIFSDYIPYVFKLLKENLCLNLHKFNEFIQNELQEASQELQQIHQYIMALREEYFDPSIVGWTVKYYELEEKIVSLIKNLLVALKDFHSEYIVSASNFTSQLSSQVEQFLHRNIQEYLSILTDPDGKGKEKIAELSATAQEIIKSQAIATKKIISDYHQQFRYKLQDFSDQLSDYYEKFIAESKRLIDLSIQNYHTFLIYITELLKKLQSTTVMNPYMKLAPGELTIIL
Where a SMILES comes first, the peptide text is derived from it. [ ]: non-standard residue; d: D form.

Some compounds with known inhibition at 10 µM results, for comparison:
CC(=O)N[C@H](CO)C(=O)N[C@H](CCC(=O)O)C(=O)N[C@H](CC(=O)O)C(=O)N[C@H](CC(N)=O)C(=O)N[C@H](CCCNC(=N)N)C(=O)N[C@H](CC(=O)O)C(=O)N[C@H](CCC(=O)O)C(=O)N[C@H](CCC(=O)O)C(=O)N[C@H](CCCNC(=N)N)C(N)=O [Example 6] (Ac-[dS][dE][dD][dN][dR][dD][dE][dE][dR]-NH2) :: 85%
CC(=O)N[C@H](CC(=O)O)C(=O)N[C@H](CC(N)=O)C(=O)N[C@H](CC(=O)O)C(=O)N[C@H](CO)C(=O)N[C@H](CCC(=O)O)C(=O)N[C@H](CC(=O)O)C(=O)N[C@H](CC(N)=O)C(=O)N[C@H](CO)C(=O)N[C@H](CC(=O)O)C(=O)N[C@H](CCC(=O)O)C(=O)N[C@H](CCC(=O)O)C(=O)N[C@H](CC(N)=O)C(N)=O [Example 10] (Ac-[dD][dN][dD][dS][dE][dD][dN][dS][dD][dE][dE][dN]-NH2) :: 96%

For the next question, use this compound.
Lookup: State the measured inhibition at 10 µM (SMase-treated LDL (Homo sapiens)) of CC(=O)N[C@H](CO)C(=O)N[C@H](CCC(=O)O)C(=O)N[C@H](CC(=O)O)C(=O)N[C@H](CC(N)=O)C(=O)N[C@H](CCCCN)C(=O)N[C@H](CC(=O)O)C(=O)N[C@H](CCC(=O)O)C(=O)N[C@H](CCC(=O)O)C(=O)N[C@H](CC(N)=O)C(N)=O [Example 9] (Ac-[dS][dE][dD][dN][dK][dD][dE][dE][dN]-NH2)
Found: 91%

----------
biological target: PLA2-treated LDL (Homo sapiens); construct: from tissue; host or cells: pooled normolipemic human plasma; experiment: Anti-LDL aggregation assay, turbidimetry, aggregation induced by phospholipase A2 (PLA2); assay type: biochemical; settings: 18 h, read-out: Inhibition of LDL aggregation, PLA2-treated LDL
Where a SMILES comes first, the peptide text is derived from it. [ ]: non-standard residue; d: D form. ξ: configuration not given here. ξD = NC(CC(=O)O)C(=O)O
readoutLabel: inhibition at 10 µM

Lookup: Check the records and state inhibition at 10 µM for CC(=O)N[C@H](CC(=O)O)C(=O)N[C@H](CC(N)=O)C(=O)N[C@H](CC(=O)O)C(=O)N[C@H](CO)C(=O)N[C@H](CCC(=O)O)C(=O)N[C@H](CC(=O)O)C(=O)N[C@H](CC(N)=O)C(=O)N[C@H](CO)C(=O)N[C@H](CC(=O)O)C(=O)N[C@H](CCC(=O)O)C(=O)N[C@H](CCC(=O)O)C(=O)N[C@H](CC(N)=O)C(N)=O [Example 10] (Ac-[dD][dN][dD][dS][dE][dD][dN][dS][dD][dE][dE][dN]-NH2)
Found: 94%

Lookup: Check the records and state inhibition at 10 µM for CC(=O)N[C@H](CC(N)=O)C(=O)N[C@H](CC(=O)O)C(=O)N[C@H](CO)C(=O)N[C@H](CCC(=O)O)C(=O)N[C@H](CC(=O)O)C(=O)N[C@H](CC(N)=O)C(=O)N[C@H](CO)C(=O)N[C@H](CC(=O)O)C(=O)N[C@H](CCC(=O)O)C(=O)N[C@H](CCC(=O)O)C(=O)N[C@H](CC(N)=O)C(N)=O [Example 11] (Ac-[dN][dD][dS][dE][dD][dN][dS][dD][dE][dE][dN]-NH2)
Found: 95.2%

Lookup: Check the records and state inhibition at 10 µM for CC(=O)N[C@H](CC(N)=O)C(=O)N[C@H](CC(=O)O)C(=O)N[C@H](CO)C(=O)N[C@H](CCC(=O)O)C(=O)N[C@H](CC(=O)O)C(=O)N[C@H](CC(N)=O)C(=O)N[C@H](CO)C(=O)NC(CC(=O)O)C(=O)N[C@H](CCC(=O)O)C(=O)N[C@H](CCC(=O)O)C(=O)N[C@H](C)C(N)=O (stereo partly drawn) [Example 14] (Ac-[dN][dD][dS][dE][dD][dN][dS][ξD][dE][dE][dA]-NH2)
Found: 74%

Lookup: Check the records and state inhibition at 10 µM for CC(=O)N[C@H](CO)C(=O)N[C@H](CCC(=O)O)C(=O)N[C@H](CC(=O)O)C(=O)N[C@H](CC(N)=O)C(=O)N[C@H](CCCNC(=N)N)C(=O)N[C@H](CC(=O)O)C(=O)N[C@H](CCC(=O)O)C(=O)N[C@H](CCC(=O)O)C(=O)N[C@H](Cc1c[nH]c2ccccc12)C(N)=O [Example 8] (Ac-[dS][dE][dD][dN][dR][dD][dE][dE][dW]-NH2)
Found: 3.1%

Lookup: Check the records and state inhibition at 10 µM for CC(=O)N[C@H](CO)C(=O)N[C@H](CCC(=O)O)C(=O)N[C@H](CC(=O)O)C(=O)N[C@H](CC(N)=O)C(=O)N[C@H](C)C(=O)N[C@H](CC(=O)O)C(=O)N[C@H](CCC(=O)O)C(=O)N[C@H](CCC(=O)O)C(=O)N[C@H](C)C(N)=O [Example 3] (Ac-[dS][dE][dD][dN][dA][dD][dE][dE][dA]-NH2)
Found: 37.2%

Lookup: Check the records and state inhibition at 10 µM for CC(=O)N[C@H](CO)C(=O)N[C@H](CCC(=O)O)C(=O)N[C@H](CC(=O)O)C(=O)N[C@H](CC(N)=O)C(=O)N[C@H](CCCNC(=N)N)C(=O)N[C@H](CC(=O)O)C(=O)N[C@H](CCC(=O)O)C(=O)N[C@H](CCC(=O)O)C(=O)N[C@H](CCCNC(=N)N)C(N)=O [Example 6] (Ac-[dS][dE][dD][dN][dR][dD][dE][dE][dR]-NH2)
Found: 15.3%
